# System: SR leukemia
# ASSAY INFO: NCI tumour cell line growth inhibition, 48 h
Collected TGI values appear next to each entry.

Recorded results for 6 molecules are shown here.
>>> recorded_value("CCOC(=O)/C=C(/C(=O)OCC)n1ccc(=O)n(Cc2cn(COCCOC(C)=O)nn2)c1=O")
"52.6 µM"
>>> recorded_value("COc1cc2c(cc1OC)C(CC(=O)NN=C(C)C)NCC2 (stereo unspecified)")
"> 100 µM"
>>> recorded_value("NS(=O)(=O)c1ccc(NC2(C(=O)O)CCCC2)cc1")
"> 100 µM"
>>> recorded_value("CCOCc1nc2c(OC)cc(-c3nc4ccc(N5CCN(C)CC5)cc4[nH]3)c(OC)c2[nH]1")
"59.7 µM"
>>> recorded_value("CCOC(=O)C1=C(C)N(NC(=O)Nc2ccccc2)C(=O)C1=P(c1ccccc1)(c1ccccc1)c1ccccc1")
"56.1 µM"
>>> recorded_value("COc1cc2nc3cc([N+](=O)[O-])ccc3c(NCCCNCCO)c2cc1OC")
"1.71 µM"

SR leukemia / TGI / CCOc1ccccc1NC(=O)CC(C(=O)OC)C(=O)C(=O)OC (stereo unspecified) : value?
> 100 µM

SR leukemia / TGI / CC(=O)OCC12C(=O)C[C@@H](C)C3(CC(c4ccoc4)OC3=O)C1CCC(OC(C)=O)C21CO1 (stereo partly specified) : value?
> 100 µM

SR leukemia / TGI / C[N+](C)(C)CC1CCCCCCCCCCC1=O (stereo unspecified) : value?
> 100 µM

SR leukemia / TGI / `CCOC(=O)c1c(C)n(Cc2ccc(Cl)cc2Cl)c2c1c(CN(C)C)c(O)c1[nH]cnc12` : value?
4.76 µM

SR leukemia / TGI / `O=C1CCC(c2ccc(Cl)cc2)=NN1c1nsc2ccccc12` : value?
54.8 µM

SR leukemia / TGI / CC1=NNC(N)=N/C1=C\C(Sc1ccc(Cl)cc1)c1ccc([N+](=O)[O-])cc1 (stereo unspecified) : value?
> 100 µM

SR leukemia / TGI / `c1ccc2c(c1)ccn2CCc1c[nH]c2ccccc12` : value?
> 10 µM

SR leukemia / TGI / Cn1c(=O)c(C(c2ccc([N+](=O)[O-])cc2)c2c(O)c3ccccc3n(C)c2=O)cc2ccccc21 (stereo unspecified) : value?
> 100 µM

SR leukemia / TGI / `O=C(N/N=C\c1cccc2c([N+](=O)[O-])cccc12)Nc1ccccc1` : value?
43.3 µM

SR leukemia / TGI / `COc1cc(-c2ccc3c(c2)NC(=O)/C3=C\c2ccc[nH]2)ccc1O` : value?
> 30.5 µM

SR leukemia / TGI / `COC(=O)[C@H](C)NC(=O)NC(=O)NC(=O)CI` : value?
5.94 µM
